System: rice
Assay: Test B flooded paddy test
Type: in vivo, Oryza sativa
Details: 1000 g ai/ha, scale 0 to 100 (0 no effect, 100 complete control)
Would you mind labelling by Rice plant response rating? At or over 70 is MET, under is NOT MET.

Below, 5 compounds whose answers are already recorded.
recordSmiles | categoryLabel
C=CCNC(=O)c1ccc(F)c(NC(=O)c2nn(C(C)(C)C)nc2CC)c1 | NOT MET
CCn1nc(C(C)(C)C)cc1C(=O)Nc1cncc(C(=O)N(C)C)c1 | MET
CCc1nn(C(C)(C)C)cc1C(=O)Nc1ccc(F)c(C(=O)N(CC)CC)c1 | NOT MET
CCn1nc(C2(C)CC2)cc1C(=O)Nc1cccc(C(=O)N(C)C)c1 | MET
CCc1nn(C2CCCC2)nc1C(=O)Nc1cccc(C(=O)N2CC=CC2)c1 | NOT MET

Test whether the compound `CCn1nc(C(C)(C)C)cc1C(=O)Nc1cc(C(=S)N(C)C)ccn1` records Rice plant response rating of 70 or higher.
MET

Test whether the compound `C#CCOC(=O)c1cccc(NC(=O)c2cc(C(C)(C)C)nn2C)n1` records Rice plant response rating of 70 or higher.
NOT MET

Test whether the compound `C#CCNC(=O)c1cccc(NC(=O)c2nn(C(C)(C)C)nc2C)c1` records Rice plant response rating of 70 or higher.
NOT MET
